- system.under.test: T1, CD32a-R131 (FcgRIIa-R131) (Homo sapiens, UniProt P12318, H167R)
- T1 sequence (P12318 34-217 H167R limits assumed): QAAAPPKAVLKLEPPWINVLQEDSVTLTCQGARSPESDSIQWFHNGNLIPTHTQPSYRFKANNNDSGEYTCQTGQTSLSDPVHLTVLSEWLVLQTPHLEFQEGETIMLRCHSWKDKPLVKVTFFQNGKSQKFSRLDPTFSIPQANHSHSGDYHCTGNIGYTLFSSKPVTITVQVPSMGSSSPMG
- assay.procedure: SPR, antibody binding to anti-his Fab captured FcgR-his (% Rmax)
- conditions.used: 1 μM antibody
measure.name: % Rmax hCD32a-R131 (%)
Response body: numeric value in %, unit text excluded.

mAb8-IgG2.5G1-AY-V27 (protein, left off: another chain or arm of the molecule) constant: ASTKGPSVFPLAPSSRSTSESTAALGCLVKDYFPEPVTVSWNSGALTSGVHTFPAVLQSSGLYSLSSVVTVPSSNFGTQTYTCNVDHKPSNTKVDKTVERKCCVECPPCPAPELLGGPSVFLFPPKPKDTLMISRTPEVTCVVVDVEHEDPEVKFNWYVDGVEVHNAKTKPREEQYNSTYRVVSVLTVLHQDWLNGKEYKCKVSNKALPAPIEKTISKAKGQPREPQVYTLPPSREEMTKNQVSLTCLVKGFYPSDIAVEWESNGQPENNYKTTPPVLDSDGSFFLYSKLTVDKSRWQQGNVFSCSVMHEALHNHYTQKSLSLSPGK	79
mAb13-IgG2.5 (protein, left off: another chain or arm of the molecule) constant: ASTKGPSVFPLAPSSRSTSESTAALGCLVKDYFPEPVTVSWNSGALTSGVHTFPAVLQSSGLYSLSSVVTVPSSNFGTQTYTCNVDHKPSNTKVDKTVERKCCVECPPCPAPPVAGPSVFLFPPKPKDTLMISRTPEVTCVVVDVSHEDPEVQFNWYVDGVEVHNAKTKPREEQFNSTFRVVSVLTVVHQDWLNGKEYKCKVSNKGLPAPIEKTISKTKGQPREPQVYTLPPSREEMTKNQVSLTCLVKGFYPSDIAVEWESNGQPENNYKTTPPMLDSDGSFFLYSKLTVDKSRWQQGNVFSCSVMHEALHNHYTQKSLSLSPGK	4
mAb12-IgG2.5 (protein, left off: another chain or arm of the molecule) constant: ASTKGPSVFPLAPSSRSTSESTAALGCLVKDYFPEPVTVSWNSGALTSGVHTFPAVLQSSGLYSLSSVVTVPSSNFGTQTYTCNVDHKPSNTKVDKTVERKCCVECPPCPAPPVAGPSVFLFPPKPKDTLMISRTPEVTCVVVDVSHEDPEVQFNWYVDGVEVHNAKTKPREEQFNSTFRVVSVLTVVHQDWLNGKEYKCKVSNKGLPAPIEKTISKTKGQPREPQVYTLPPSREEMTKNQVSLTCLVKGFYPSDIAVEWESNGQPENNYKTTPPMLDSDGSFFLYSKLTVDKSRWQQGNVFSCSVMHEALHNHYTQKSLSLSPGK	6
mAb11-IgG2.3 (protein, left off: another chain or arm of the molecule) constant: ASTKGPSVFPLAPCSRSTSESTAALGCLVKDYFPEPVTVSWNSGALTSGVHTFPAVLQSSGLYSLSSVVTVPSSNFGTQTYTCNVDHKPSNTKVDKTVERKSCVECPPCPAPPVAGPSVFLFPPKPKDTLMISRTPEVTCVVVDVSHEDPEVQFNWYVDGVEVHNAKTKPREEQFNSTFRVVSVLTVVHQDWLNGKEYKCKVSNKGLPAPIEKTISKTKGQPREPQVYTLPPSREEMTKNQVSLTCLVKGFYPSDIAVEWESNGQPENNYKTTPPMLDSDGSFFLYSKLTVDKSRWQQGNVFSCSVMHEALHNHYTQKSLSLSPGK	17
mAb8-IgG2.3G1-AY-V27 (protein, left off: another chain or arm of the molecule) constant: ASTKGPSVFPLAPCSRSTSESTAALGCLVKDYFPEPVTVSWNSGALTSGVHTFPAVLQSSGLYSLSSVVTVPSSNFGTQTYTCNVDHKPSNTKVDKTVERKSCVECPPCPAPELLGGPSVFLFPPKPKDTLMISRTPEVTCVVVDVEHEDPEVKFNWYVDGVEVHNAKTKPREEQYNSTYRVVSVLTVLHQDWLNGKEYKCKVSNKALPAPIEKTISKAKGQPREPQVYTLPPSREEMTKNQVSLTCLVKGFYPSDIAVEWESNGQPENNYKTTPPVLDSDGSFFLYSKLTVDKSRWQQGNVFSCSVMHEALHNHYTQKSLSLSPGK	80

Prompt line: Any idea what its % Rmax hCD32a-R131 is? The molecule is mAb11-IgG2.5 (protein, left off: another chain or arm of the molecule) constant: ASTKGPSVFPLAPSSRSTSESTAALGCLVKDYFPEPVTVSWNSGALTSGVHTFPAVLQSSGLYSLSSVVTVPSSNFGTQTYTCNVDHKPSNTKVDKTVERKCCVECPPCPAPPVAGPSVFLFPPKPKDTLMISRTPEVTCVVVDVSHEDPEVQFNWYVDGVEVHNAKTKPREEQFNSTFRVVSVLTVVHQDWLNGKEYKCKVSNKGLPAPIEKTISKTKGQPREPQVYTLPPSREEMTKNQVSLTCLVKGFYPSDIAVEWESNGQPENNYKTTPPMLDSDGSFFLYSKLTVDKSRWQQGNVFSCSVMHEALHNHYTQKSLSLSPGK
Response line: 13

Prompt line: Quick check: % Rmax hCD32a-R131 of mAb7-IgG2.3G1-AY-V27 (protein, left off: another chain or arm of the molecule) constant: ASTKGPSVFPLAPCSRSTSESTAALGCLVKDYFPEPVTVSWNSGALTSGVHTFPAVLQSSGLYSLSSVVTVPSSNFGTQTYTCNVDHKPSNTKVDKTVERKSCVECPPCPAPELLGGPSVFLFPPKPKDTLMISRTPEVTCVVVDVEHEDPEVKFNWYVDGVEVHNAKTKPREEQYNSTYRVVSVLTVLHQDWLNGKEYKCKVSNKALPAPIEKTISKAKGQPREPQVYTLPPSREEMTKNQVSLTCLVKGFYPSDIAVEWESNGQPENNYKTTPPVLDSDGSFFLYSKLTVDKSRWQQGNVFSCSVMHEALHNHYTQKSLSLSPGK ?
Response line: 92
